- System: Glutamate receptor ionotropic, NMDA 3A (GRIN3A) ligand-binding domain
- protocol summary: binders of NR3A ligand-binding domain, primary screen, biophysical, differential scanning fluorimetry, uHTS (AID 1259313)
- experimental parameters: NR3A LBD differential scanning fluorimetry, at 25 µM, stronger effect = higher value, 0% = protein alone, 100% = glycine-bound protein
The whole screen tested about 340,000 compounds, of which about 8,500 (2.5%) were called active. For the sample, actives were picked, then their nearest neighbours and some compounds at random.
Kindly supply the reported Tm shift relative to glycine control values for the records listed here.
Form entry: value (%) — number only.

Q) What does the data say about its Tm shift relative to glycine control? Entry: CN1CCN(C(=O)c2ccc(-c3ccc(Br)cc3)o2)CC1
A) 1.11

Q) What does the data say about its Tm shift relative to glycine control? Entry: COc1cccc(/C=C/C(=O)Nc2ccc3c(c2)OCCO3)c1
A) 2.64

Q) What does the data say about its Tm shift relative to glycine control? Entry: CCc1cccc(NC(=O)COC(=O)C2CCN(c3ccc(C(F)(F)F)cn3)CC2)c1
A) 12.6

Q) What does the data say about its Tm shift relative to glycine control? Entry: CCOc1ccc(N=C2NC(=O)S/C2=C\c2ccc(O)cc2)cc1
A) 15.1

Q) What does the data say about its Tm shift relative to glycine control? Entry: CCOc1ccc(CCNC(=O)COC(=O)C2CCN(c3ccc(C(F)(F)F)cn3)CC2)cc1OCC
A) -4.5

Q) What does the data say about its Tm shift relative to glycine control? Entry: O=S(=O)(Nc1ccccc1Br)c1cccs1
A) 0.85

Q) What does the data say about its Tm shift relative to glycine control? Entry: CCC1(CC)NC(=O)N(Cc2nc3ccccc3s2)C1=O
A) -0.61

Q) What does the data say about its Tm shift relative to glycine control? Entry: CCOc1cc(-c2noc(CCCC(=O)NC3CCCCC3)n2)ccc1OC
A) -2.03

Q) What does the data say about its Tm shift relative to glycine control? Entry: CCNC(=O)CCc1nc(-c2ccc(C(C)(C)C)cc2)no1
A) 2.39

Q) What does the data say about its Tm shift relative to glycine control? Entry: CSc1nc2c(c(=O)[nH]1)C(c1cccc(Cl)c1Cl)CC(=O)N2 (stereo not given)
A) -1.69

Q) What does the data say about its Tm shift relative to glycine control? Entry: COc1cc(OC)c(C(=O)NNC(=O)c2ccccc2-n2cccc2)cc1OC
A) -0.41

Q) What does the data say about its Tm shift relative to glycine control? Entry: COc1ccc(CCNC(=O)C(=O)NCC2CCNCC2)cc1OC
A) -0.1

Q) What does the data say about its Tm shift relative to glycine control? Entry: CC(=O)C(CC(=O)N1CCCC1)C(=O)Nc1ccc(Cl)cc1 (stereo not given)
A) -1.13

Q) What does the data say about its Tm shift relative to glycine control? Entry: O=C(Cn1c(-c2cscn2)nc2ccccc21)Nc1ccc(Cl)cc1
A) -2.29

Q) What does the data say about its Tm shift relative to glycine control? Entry: O=C1NC(Nc2nc3ccccc3s2)(C(F)(F)F)C(=O)N1C1CCCCC1 (stereo not given)
A) 13.7

Q) What does the data say about its Tm shift relative to glycine control? Entry: CN(C)N=Nc1ccc2nc[nH]c2c1
A) -1.21

Q) What does the data say about its Tm shift relative to glycine control? Entry: COc1ccc(Oc2coc3cc(OC(=O)c4cncc(Br)c4)ccc3c2=O)cc1
A) -4.3

Q) What does the data say about its Tm shift relative to glycine control? Entry: CC(=O)n1c(C=Nc2ccccc2)c(O)c2ccccc21
A) 0.18

Q) What does the data say about its Tm shift relative to glycine control? Entry: Cc1ccc(NC(=O)CSCC(=O)Nc2sccc2C#N)cc1
A) -2.55

Q) What does the data say about its Tm shift relative to glycine control? Entry: O=C(N/N=C/c1ccccn1)c1cccc(NC(=O)c2ccc(Cl)cc2)c1
A) 21.2

Q) What does the data say about its Tm shift relative to glycine control? Entry: O=C(Nc1cccc(Cl)c1)Nc1ccccc1NS(=O)(=O)c1cccs1
A) 30.3

Q) What does the data say about its Tm shift relative to glycine control? Entry: S=c1[nH]nc(-c2cccs2)n1/N=C/c1cn(-c2ccccc2)nc1-c1ccc(Cl)cc1
A) 15.2

Q) What does the data say about its Tm shift relative to glycine control? Entry: Cc1ccc(NC(=O)c2sc3nc(N)c(C#N)cc3c2N)cc1
A) 10.3

Q) What does the data say about its Tm shift relative to glycine control? Entry: O=C(O)c1cc2ccccc2c(=O)s1
A) -0.71

Q) What does the data say about its Tm shift relative to glycine control? Entry: CCc1ccc2nc3sc(C(=O)Nc4nnc(CC)s4)c(N)c3cc2c1
A) 2.24

Q) What does the data say about its Tm shift relative to glycine control? Entry: CCCOc1ccc(C(=O)NCCc2ccccc2)cc1
A) 25.8

Q) What does the data say about its Tm shift relative to glycine control? Entry: CN(c1ccccc1)S(=O)(=O)c1ccc(C(=O)NCCc2ccccc2)cc1
A) -0.95

Q) What does the data say about its Tm shift relative to glycine control? Entry: S=c1[nH]nc(-c2cccs2)n1/N=C/c1cccs1
A) 0.68

Q) What does the data say about its Tm shift relative to glycine control? Entry: Cc1cccc(NC(=O)C(C)SCc2ccccc2)c1 (stereo not given)
A) 1.98

Q) What does the data say about its Tm shift relative to glycine control? Entry: Oc1c(Br)cc(/C=N/NC(=S)NCC2CCCO2)cc1Br (stereo not given)
A) 1.71

Q) What does the data say about its Tm shift relative to glycine control? Entry: O=C(O)c1cccc(NC(=O)c2cc(-c3cccc(Cl)c3)nc3ccccc23)c1
A) -12.1

Q) What does the data say about its Tm shift relative to glycine control? Entry: CCOC(=O)N1CCN(S(=O)(=O)c2ccc(Br)cc2)CC1
A) -0.87

Q) What does the data say about its Tm shift relative to glycine control? Entry: CCOC(=O)N1CCN(C(=O)COc2ccc(Br)cc2)CC1
A) 10.1

Q) What does the data say about its Tm shift relative to glycine control? Entry: Cc1ccc(-c2nnc(SCC(=O)N/N=C/c3cccs3)n2-c2ccc(C)cc2)cc1
A) -6.78

Q) What does the data say about its Tm shift relative to glycine control? Entry: CC(C)N1CCC(=NNc2ccc([N+](=O)[O-])cc2S(=O)(=O)N2CCOCC2)CC1
A) 0.15

---

Kindly supply the reported Tm shift relative to glycine control values for the records listed here.
- Test system: Glutamate receptor ionotropic, NMDA 3A (GRIN3A) ligand-binding domain
- protocol summary: binders of NR3A ligand-binding domain, primary screen, biophysical, differential scanning fluorimetry, uHTS (AID 1259313)
- experimental parameters: NR3A LBD differential scanning fluorimetry, at 25 µM, stronger effect = higher value, 0% = protein alone, 100% = glycine-bound protein
The whole screen tested about 340,000 compounds, of which about 8,500 (2.5%) were called active. For the sample, actives were picked, then their nearest neighbours and some compounds at random.
Form entry: value (%) — number only.

Q) What does the data say about its Tm shift relative to glycine control? Entry: Cc1ccc(S(=O)(=O)N2CCCCC2)cc1C(=O)N1CCN(CCO)CC1
A) 2.45

Q) What does the data say about its Tm shift relative to glycine control? Entry: O=C(NCc1ccccc1Cl)C1CCN(S(=O)(=O)c2cccc3nonc23)CC1
A) 2.6

Q) What does the data say about its Tm shift relative to glycine control? Entry: CC(C)c1ccc(Nc2nnc(SCC(=O)c3nnc(-c4ccccc4)o3)s2)cc1
A) 19.9

Q) What does the data say about its Tm shift relative to glycine control? Entry: Cc1ccc2cc(C)c(N3CCC(C)CC3)nc2c1
A) 3.71

Q) What does the data say about its Tm shift relative to glycine control? Entry: Cc1ccc(Nc2nnc(SCC(=O)c3cc4ccccc4o3)s2)cc1C
A) 11.5

Q) What does the data say about its Tm shift relative to glycine control? Entry: COc1ccccc1NC(=O)CN1CCN(S(=O)(=O)c2ccc(Br)cc2)CC1
A) 24.1

Q) What does the data say about its Tm shift relative to glycine control? Entry: Cc1ccccc1Nc1nnc(SCC(=O)c2cc3ccccc3o2)s1
A) -23.4

Q) What does the data say about its Tm shift relative to glycine control? Entry: CC(C)c1ccc(S(=O)(=O)N2CCN(C(C)C(=O)NC3CCCC3)CC2)cc1 (stereo unspecified)
A) -0.92

Q) What does the data say about its Tm shift relative to glycine control? Entry: CC(C)N(C(=O)CSc1nnc(NC2CC2)s1)c1ccccc1
A) -1.56

Q) What does the data say about its Tm shift relative to glycine control? Entry: Cc1nc(SCC(=O)N2CCc3ccccc3C2)c2c(C)c(C)sc2n1
A) -0.44

Q) What does the data say about its Tm shift relative to glycine control? Entry: O=C(/C=C/c1ccc2c(c1)OCCO2)c1ccc(O)cc1
A) 13.4

---

- Tested on: Glutamate receptor ionotropic, NMDA 3A (GRIN3A) ligand-binding domain
- protocol summary: binders of NR3A ligand-binding domain, primary screen, biophysical, differential scanning fluorimetry, uHTS (AID 1259313)
- experimental parameters: NR3A LBD differential scanning fluorimetry, at 25 µM, stronger effect = higher value, 0% = protein alone, 100% = glycine-bound protein
The whole screen tested about 340,000 compounds, of which about 8,500 (2.5%) were called active. For the sample, actives were picked, then their nearest neighbours and some compounds at random.
Kindly supply the reported Tm shift relative to glycine control values for the records listed here.
Form entry: value (%) — number only.

Q) What does the data say about its Tm shift relative to glycine control? Entry: C=CCn1c(C23CC4CC(CC(C4)C2)C3)n[nH]c1=S
A) 0.44

Q) What does the data say about its Tm shift relative to glycine control? Entry: Cc1c(CC(=O)NCC(=O)NCC(=O)O)c(=O)oc2cc3oc4c(c3cc12)CCCC4
A) 31.7

Q) What does the data say about its Tm shift relative to glycine control? Entry: COC(=O)c1c(NC(=O)CN(c2ccc(C)c(C)c2)S(C)(=O)=O)sc2c1CCCC2
A) -7.55

Q) What does the data say about its Tm shift relative to glycine control? Entry: CC(C)=CCCC1(C)C=Cc2c(ccc3c2[nH]c2cc(O)c(C)cc23)O1 (centres undefined)
A) 22.5

Q) What does the data say about its Tm shift relative to glycine control? Entry: CC(=O)N1CCN(C(=O)c2cc(-c3ccc(C)o3)nc3ccccc23)CC1
A) 40

Q) What does the data say about its Tm shift relative to glycine control? Entry: CC[C@@H](C)[C@H](NC(=O)CCc1c(C)c2cc3c4c(oc3c(C)c2oc1=O)CCCC4)C(=O)O
A) 1.33

Q) What does the data say about its Tm shift relative to glycine control? Entry: CCOc1ccccc1-c1cc(C(=O)N2CCOCC2)c2ccccc2n1
A) 12.6

Q) What does the data say about its Tm shift relative to glycine control? Entry: Cc1ccc2cc(C)c(N3CCN(c4ccc(F)cc4)CC3)nc2c1
A) 1.71

Q) What does the data say about its Tm shift relative to glycine control? Entry: CCN1C(=O)[C@H]2[C@@H](c3ccc(-c4ccc(OC)cc4)cc3)N[C@@](Cc3ccccc3)(C(=O)OC)[C@H]2C1=O
A) -3.39

Q) What does the data say about its Tm shift relative to glycine control? Entry: O=C(NCCCn1ccnc1)c1cc(-c2ccccc2)on1
A) 1.42

Q) What does the data say about its Tm shift relative to glycine control? Entry: CCOc1ccccc1-c1cc(C(=O)N/N=C(\C)c2cccnc2)c2ccccc2n1
A) -0.86

Q) What does the data say about its Tm shift relative to glycine control? Entry: CC(=O)NCCC(=O)Nc1cc(S(=O)(=O)N2CCCCC2)ccc1Oc1cccc(C)c1
A) 1.88

Q) What does the data say about its Tm shift relative to glycine control? Entry: Cc1ccc(Cc2cncc(O)c2)cc1S(=O)(=O)O
A) 0.09

Q) What does the data say about its Tm shift relative to glycine control? Entry: Cc1ccc(-n2ncc3c(N4CCN(c5ccc(F)cc5)CC4)ncnc32)c(C)c1
A) 10.6

Q) What does the data say about its Tm shift relative to glycine control? Entry: OC(CNCc1ccc(Cl)c(Cl)c1)c1ccccc1 (centres undefined)
A) 2.04

Q) What does the data say about its Tm shift relative to glycine control? Entry: CCN1C(=O)[C@H]2[C@@H](c3ccc(-c4ccc(F)cc4)cc3)N[C@@](Cc3ccccc3)(C(=O)OC)[C@H]2C1=O
A) 1.35

Q) What does the data say about its Tm shift relative to glycine control? Entry: O=C(Cc1ccccc1)Nc1ccc(C(=O)Nc2ccccc2C(=O)O)cc1
A) 0.78

Q) What does the data say about its Tm shift relative to glycine control? Entry: CCOC(=O)NN1C(=O)c2ccccc2NC1c1ccccc1O (centres undefined)
A) 1.62

Q) What does the data say about its Tm shift relative to glycine control? Entry: COc1ccc(NC(=O)c2cc(-c3ccc(C)o3)nc3ccccc23)cc1
A) 3.74
